Test system: SF-539
Assay: NCI tumour cell line growth inhibition, 48 h
Activity calls are given as the source filed them. Cut-off read from the data, not from the text of the source: active = GI50 up to about 1.1 µM and inactive = higher.
Choose one outcome from this list and give only that: active, inactive

What did the test return for COC(=O)Nc1nc2cc(Oc3ccc4nc(NC(=O)OC)[nH]c4c3)ccc2[nH]1 ?
active

---

System: KM12
Assay: NCI tumour cell line growth inhibition, 48 h
Active and inactive are the calls of the source. No stated cut-off is given here; in the data, active = GI50 up to about 1.1 µM and inactive = higher.
Choose one outcome from this list and give only that: active, inactive

Use the examples below as a reference point.
| compound | assigned_class |
| --- | --- |
| Cn1c(N)nc(=O)c2c1N(C1OC(CO)C(O)C1O)CN2Cc1ccccc1 (stereo not given) | inactive |
| [O-][n+]1onc2c1/C(=N/O)CCC2 | inactive |
| C/C=C/[C@H](O[Si](C)(C)C(C)(C)C)[C@@H](O)/C=C/C(=O)OCC | inactive |
| Oc1cc(O)c2c(c1)OC(c1ccc(O)c(O)c1)C(OC1(c3cc(O)c(O)c(O)c3)Oc3cc(O)cc(O)c3C(O)C1O)C2 (stereo not given) | inactive |
| CN(C)C(=O)/N=C1\SC(=N\c2ccccc2)/C(=N/c2ccccc2)N1c1ccc([N+](=O)[O-])cc1 | inactive |
| CC(=O)O[C@@H]1CC2[C@@H](CCC3Cc4nc5c(nc4C[C@@]32C)CC2CC[C@@H]3C(CC[C@@]4(C)C3CC[C@@H]4C(C)CCCC(C)C)[C@@]2(C)C5)C2C[C@@H]3OC4(CCC(C)CO4)C(C)[C@@H]3[C@]21C (stereo not given in full) | inactive |

What did the test return for Nc1ncnc2c1nnn2C1OC(CO)C(O)C1O (stereo not given) ?
inactive

What did the test return for OCC1c2ccccc2-n2nc(-c3ccccc3)c(O)c21 (stereo not given) ?
inactive

What did the test return for COc1ccccc1/C=C/c1c(N)ncnc1Nc1cccc(Cl)c1 ?
inactive

What did the test return for C/C(=N\Nc1nc2ccccc2s1)c1cc(C)ncn1 ?
active

---

Test system: UACC-257
Assay: NCI tumour cell line growth inhibition, 48 h
Activity calls are given as the source filed them. Rule as the data show it: active = GI50 up to about 1.1 µM and inactive = higher. Where a SMILES comes first, the peptide text is derived from it. The star is where a group is joined. Boc = CC(C)(C)OC(=O)*
Choose one outcome from this list and give only that: true (1) = active, false (0) = inactive

| compound | assigned_class |
| --- | --- |
| COc1ccccc1/C=C/c1c(N)ncnc1Nc1cccc(Cl)c1 | false (0) |
| CCCCOCOc1ccccc1P1(=O)COc2ccccc2OC1 | false (0) |
| COc1ccc(NC(=S)NNC(=O)c2nsc3ccccc23)cc1 | false (0) |
| CNc1ccc(C(=O)CC(O)CCC(C)C2OC(=O)CC(O)CC(=O)CC(O)CC(O)CC(O)CC(O)CC3(O)CC(O)C(C(=O)NCCN(C)C)C(CC(OC4OC(C)C(O)C(NC(=O)CN5CCN(C)CC5)C4O)\C=C/C=C\C=C/C=C/C=C/C=C\C=C/C2C)O3)cc1 (stereo not given) | false (0) |
| CC(C)(C)OC(=O)NC(Cc1ccc(O)cc1)C(=O)N1CCCC1C(=O)O (stereo not drawn) (Boc-Tyr-Pro-OH; configuration not given here) | false (0) |

What did the test return for O=C1COc2cc3c(cc2N1)SCCC(=O)N3 ?
false (0)

What did the test return for OCC1c2ccccc2-n2nc(-c3ccccc3)c(O)c21 (stereo not given) ?
false (0)

What did the test return for CC(C)(O)CCc1ccc(O)c2c(=O)c3c(O)c4c(cc3oc12)O[C@H]1OC=C[C@@]41O ?
true (1)

What did the test return for O=C1C(Cl)=C(Oc2ccc([N+](=O)[O-])cc2)C(=O)c2c(O)ccc(O)c21 ?
false (0)

What did the test return for CCN(CC)CCCC(C)Nc1ccnc2cc(Cl)ccc12 (stereo not given) [CHLOROQUINE PHOSPHATE] ?
false (0)

What did the test return for Cc1ccc(S(=O)(=O)NC(CCC(=O)NN)C(=O)NN)cc1 (stereo not given) ?
false (0)

What did the test return for CCO[C@H]1C[C@@H](c2ccccc2)[C@]2(C)C[C@H](C(=O)OC)ON2O1 ?
false (0)

What did the test return for Cn1c(N)nc(=O)c2c1N(C1OC(CO)C(O)C1O)CN2Cc1ccccc1 (stereo not given) ?
false (0)

What did the test return for CC(=O)NC(CCCN(Cc1ccccc1)C(=O)N(C)N=O)C(=O)NCc1ccccc1 (stereo not given) ?
false (0)
